Tested on: Fibroblast
Assay: Multiplex assay against human fibroblast
Type: toxicity, cell-based
Settings: 12 h, 1 µM, compound concentration 1 uM, replicate 2
The following compounds are listed with their measured Population Apoptotic (%) values.
Numbers only here, please. The scale is %.

Worked cases, answers included:
Cl.N#Cc1ccc2[nH]cc(CCCCN3CCN(c4ccc5oc(C(N)=O)cc5c4)CC3)c2c1 [VILAZODONE HYDROCHLORIDE]    27
Cc1nc(Nc2n[nH]c3c2CN(C(=O)N[C@H](CN(C)C)c2ccccc2)C3(C)C)c2sccc2n1 [PF-03758309]    60
C=CC(=O)Nc1cc2c(Nc3ccc(F)c(Cl)c3)ncnc2cc1OCCCN1CCOCC1.Cl.Cl [CANERTINIB DIHYDROCHLORIDE]    100
CN1CCC[C@@H]1CCO[C@](C)(c1ccccc1)c1ccc(Cl)cc1.O=C(O)/C=C/C(=O)O [CLEMASTINE FUMARATE]    50
C=CC(=O)Nc1ccc2ncnc(Nc3ccc(OCc4cccc(F)c4)c(Cl)c3)c2c1.Cc1ccc(S(=O)(=O)O)cc1    50
OC1(c2ccc(Cl)cc2)CCN(Cc2c[nH]c3ccccc23)CC1    0
CN(C)C(=O)N[C@H]1CC[C@H](CCN2CCN(c3cccc(Cl)c3Cl)CC2)CC1.Cl [CARIPRAZINE HYDROCHLORIDE]    60
C[C@@H](NCCCc1cccc(C(F)(F)F)c1)c1cccc2ccccc12.Cl [CINACALCET HYDROCHLORIDE]    33

Item: Cn1cc(-c2[nH]c3cc(NC(=O)[C@H](N)C4CCCCC4)cc4c3c2C=NNC4=O)cn1 | System: Fibroblast | Population Apoptotic (%): 33

Reported Population Apoptotic (%) (Fibroblast) for entry CC(C)NCC(O)COc1ccc(CCOCC2CC2)cc1.Cl (centres undefined) [BETAXOLOL HYDROCHLORIDE] is 100
